Data provenance is PubChem BioAssay (EPA / NIEHS).

- experiment notes: ATG_M_32_CIS: Attagene CIS-FACTORIAL HepG2 Assay for M32 Transcription Factor (Internal Marker) (AID 2282949);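 further: background control marker of the multiplexed CIS panel rather than a real target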
- assay context: HepG2 Attagene cis-factorial M32 reporter, mRNA; actives raise or lower the signal
The source made the active and inactive calls. How the source made its calls: active means hit-call score of the fitted dose curve at least 0.9, where 1 is the maximum; inactive means score below 0.9.
property measured: outcome

Answered cases to consult:
outcome recorded for this molecule, O=S(=O)(O)c1ccc(Nc2nc(Nc3ccc(C=Cc4ccc(Nc5nc(Nc6ccc(S(=O)(=O)O)cc6)nc(N(CCO)CCO)n5)cc4S(=O)(=O)O)c(S(=O)(=O)O)c3)nc(N(CCO)CCO)n2)cc1 , is inactive

outcome recorded for this molecule, CC(C)(CO)COC(=O)C(C)(C)CO , is inactive

outcome recorded for this molecule, Cc1cc(C)c(C=O)c(C)c1 , is inactive

outcome recorded for this molecule, COC(=O)CC(C)CCC=C(C)C (centres undefined) , is inactive

outcome recorded for this molecule, Cc1ccc2c(c1)CCCN2 , is inactive

More entries:
outcome recorded for this molecule, CCCCNC(=S)NCCCC , is inactive
